Test: Toxicity liver stage against HepG2, at 10uM
Assay type: cell-based
Set-up: test concentration 10 uM, cell line HepG2-A16-CD81EGFP
Assay Conditions: human, HepG2-A16-CD81EGFP cells; read-out: INHIBITION
What cytotoxicity at 10 µM was measured for each of the following?
Please state the value followed by its unit.

Fill in: cytotoxicity at 10 µM of COc1cc(N2CCC3(CC2)CN(CCO)c2ccccc23)ncn1 is ___
19.7%

Fill in: cytotoxicity at 10 µM of Cc1cnc(N2CC[C@@]3(O)CCCC[C@H]3C2)nc1-c1ccnn1C is ___
0.276%

Fill in: cytotoxicity at 10 µM of CCC(CC)n1ncc(C(=O)NS(=O)(=O)c2ccsc2)c1C is ___
-3.01%

Fill in: cytotoxicity at 10 µM of CN(Cc1ccco1)C1CCC12CCN(C(=O)N1CCCC1)CC2 (centres undefined) is ___
-1.54%

Fill in: cytotoxicity at 10 µM of O=C(CN1CCc2sccc2C1)Nc1ccnc2ccnn12 is ___
46.8%

Fill in: cytotoxicity at 10 µM of O=C1CCCN1CC1CN(CC2CCOCC2)Cc2nccn2C1 (centres undefined) is ___
1.65%

Fill in: cytotoxicity at 10 µM of NC(Cc1nc(-c2ccccc2)no1)c1ccccc1 (centres undefined) is ___
-5.08%

Fill in: cytotoxicity at 10 µM of CCNC(=O)[C@@H]1C[C@H](N)CN1C(=O)c1c[nH]c2ccccc12 is ___
-8.34%

Fill in: cytotoxicity at 10 µM of CNC(=O)[C@@]12CCC3(CCN(C(=O)C(C)C)CC3)[C@@H]1CN(S(C)(=O)=O)C2 is ___
3.89%

Fill in: cytotoxicity at 10 µM of COCC1CC2(CCN(Cc3ccoc3)CC2)CN1C(C)C (centres undefined) is ___
0.803%

Fill in: cytotoxicity at 10 µM of Cc1nc([C@H]2C[C@@H]3CCN(Cc4scnc4C)C[C@H]3O2)no1 is ___
-129%

Fill in: cytotoxicity at 10 µM of CN(C)CCCn1ccnc1C1CCCN(c2ncc(Cl)cc2F)C1 (centres undefined) is ___
-7.43%

Fill in: cytotoxicity at 10 µM of COc1ccc(CNC(=O)NC(C)(CO)C2CC2)c(C(F)(F)F)c1 (centres undefined) is ___
8.48%

Fill in: cytotoxicity at 10 µM of COc1cccc(C2CCN2C(=O)c2cnccn2)c1 (centres undefined) is ___
12.2%

Fill in: cytotoxicity at 10 µM of CCN1CCN(C)C(=O)C12CCN(C(=O)Cc1ccccn1)CC2 is ___
0.597%

Fill in: cytotoxicity at 10 µM of COCCC1(CO)CCCN(C(=O)c2cc(Cl)ccc2F)C1 (centres undefined) is ___
4.36%

Fill in: cytotoxicity at 10 µM of CCC(=O)N1Cc2nnc(C3CCOCC3)n2C(Cc2c[nH]cn2)C1 (centres undefined) is ___
-11.2%

Fill in: cytotoxicity at 10 µM of Cc1nn(C)cc1CN1CCCCCC1c1ccccc1Cl (centres undefined) is ___
7.49%

Fill in: cytotoxicity at 10 µM of CC(C)c1noc(C(C)N2CCN(c3ccc(C#N)cn3)CC2)n1 (centres undefined) is ___
-2.57%

Fill in: cytotoxicity at 10 µM of NC(=O)[C@@H]1Cc2ccccc2N1C(=O)C1CC(c2ccccc2)=NO1 (some centres undefined) is ___
5.79%

Fill in: cytotoxicity at 10 µM of CC(=O)N1CCC2(CCN(CC3CCOC3)C2)CC1 (centres undefined) is ___
-95%

Fill in: cytotoxicity at 10 µM of COc1ccc(OC)c(-c2nc(CN(C)Cc3nonc3C)c(C)o2)c1 is ___
13.5%

Fill in: cytotoxicity at 10 µM of CC(C)c1nn(C)c(N(C)C)c1CNCC(O)c1cccc(F)c1 (centres undefined) is ___
-1.82%

Fill in: cytotoxicity at 10 µM of CCC1CCCCCN1C(=O)c1nnc2ccccc2c1N (centres undefined) is ___
7.85%

Fill in: cytotoxicity at 10 µM of Cc1cc(C)cc(OCCC(=O)NC2CC(=O)N(C)C2)c1 (centres undefined) is ___
-1.68%

Fill in: cytotoxicity at 10 µM of CN(C)C(=O)C1CN(Cc2ccc(C#N)cc2F)c2ccccc2O1 (centres undefined) is ___
7.14%

Fill in: cytotoxicity at 10 µM of CN(Cc1ccccc1)C(=O)CCN1C[C@H](C2CC2)[C@@H](N(C)C)C1 is ___
-1.21%

Fill in: cytotoxicity at 10 µM of O=c1c2cc3c(cc2nnn1Cc1cccc(F)c1)OCCO3 is ___
6.39%

Fill in: cytotoxicity at 10 µM of O=C1CCCN1Cc1ncn2c1CN(C(=O)C1CC=CC1)CCC2 is ___
6.4%

Fill in: cytotoxicity at 10 µM of Cn1cc(-c2cnc(N3CCOCC3)nc2)cc1C(=O)N1CCCC1 is ___
-10.6%

Fill in: cytotoxicity at 10 µM of Cc1cc(C)n(C2CCCN(C(=O)CCOc3cccc(F)c3)C2)n1 (centres undefined) is ___
-5.56%

Fill in: cytotoxicity at 10 µM of CC(=O)N1CCSCC1c1ccc(C)o1 (centres undefined) is ___
-0.872%

Fill in: cytotoxicity at 10 µM of CN1CCCC2(CCN(Cc3cncn3C3CCCCC3)C2)C1=O (centres undefined) is ___
-5.96%

Fill in: cytotoxicity at 10 µM of c1cnnc(N2CCCC2CNc2ncnc3c2CCC3)c1 (centres undefined) is ___
-0.626%
